target: Class 1 histone deacetylase (Homo sapiens, UniProt Q13547+O15379+Q92769+Q9BY41); assay: Inhibition of Class 1 HDAC in VSV-G-pseudotyped HIV infected human 2C4 cell Jurkat model assessed as reactivation of HIV latency in presence of 0.1% NHS by fluorescent reporter gene assay
Value Type: EC50 (nM)
Please reply with the bare figure in nM and do not write the unit itself.

Past entries and their recorded results:
- Compound: "CCC(=O)CCCCC[C@H](NC(=O)[C@H]1CC12CCN(C)CC2)c1[nH]c(-c2ccc3nc(C)ccc3c2)nc1C#N"
  EC50 / nM: 105
- Compound: "CCC(=O)CCCCC[C@H](NC(=O)CN(C)C)c1[nH]c(-c2ccc(F)cc2)nc1C#N"
  EC50 / nM: 1605
- Compound: "CCC(=O)CCCCC[C@H](NC(=O)C1CN(C)C1)c1[nH]c(-c2ccc(F)cc2)nc1C(N)=O"
  EC50 / nM: 775
- Compound: "CCC(=O)CCCCC[C@H](NC(=O)[C@H]1CC12CCN(C)CC2)c1[nH]c(-c2ccc(F)cc2)nc1C#N"
  EC50 / nM: 233
- Compound: "CCC(=O)CCCCC[C@H](NC(=O)C12CCN(CC1)CC2)c1[nH]c(-c2ccc(F)cc2)nc1C#N"
  EC50 / nM: 1731

Respond only with EC50 recorded for CCC(=O)CCCCCC(NC(=O)c1cncs1)c1[nH]c(-c2ccccc2)nc1C(=O)NCCN(C)C (configuration not stated)
1142

Please give measured EC50 of the following entry: CCC(=O)CCCCCC(NC(=O)c1cncs1)c1[nH]c(-c2ccccc2)nc1C(=O)NC (configuration not stated)
570

Find the measured EC50 of CCC(=O)CCCCC[C@H](NC(=O)[C@H]1CC12CCN(C)CC2)c1[nH]c(-c2ccc3nn(C)cc3c2)nc1C#N and report it.
247
